FYI, the data here is from ChEMBL document CHEMBL6178018.

# measurement-target: Stimulator of interferon genes protein (Mus musculus, UniProt Q3TBT3)
# Sequence (Q3TBT3 whole entry): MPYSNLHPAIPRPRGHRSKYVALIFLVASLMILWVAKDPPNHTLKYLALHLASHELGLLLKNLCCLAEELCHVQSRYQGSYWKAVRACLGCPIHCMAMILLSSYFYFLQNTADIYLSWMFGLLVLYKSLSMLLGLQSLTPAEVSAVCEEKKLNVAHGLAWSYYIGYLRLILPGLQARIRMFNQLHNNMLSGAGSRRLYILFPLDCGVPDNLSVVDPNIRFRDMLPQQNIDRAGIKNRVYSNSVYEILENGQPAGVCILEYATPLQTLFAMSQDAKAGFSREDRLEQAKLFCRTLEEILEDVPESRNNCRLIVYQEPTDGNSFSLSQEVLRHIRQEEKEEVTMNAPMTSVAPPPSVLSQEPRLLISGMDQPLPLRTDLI
# experiment: Agonist activity at mouse STING expressed in human THP1-Dual cells assessed as fold change in stimulation activity measured after 24 hrs incubation by QUANTI-Luc4 based microplate reader
measured-metric: EC50 (µM)
The reply should be a number in µM, with the unit left off.

{"compound": "COc1cc2[se]c(C(=O)NCC(C)C(=O)O)c(F)c2cc1OC (centres undefined)", "EC50 / µM": 27}
{"compound": "CCC(CNC(=O)c1sc2cc(OC)c(OC)cc2c1F)C(=O)O (racemic)", "EC50 / µM": 15.7}
{"compound": "COc1cc2cc(C(=O)CCC(=O)O)sc2cc1OC", "EC50 / µM": 8.1}
{"compound": "COc1cc2sc(C(=O)NC[C@H](C)C(=O)O)c(F)c2cc1OC", "EC50 / µM": 61.2}
{"compound": "CC[C@@H](CNC(=O)c1sc2cc(OC)c(OC)cc2c1F)C(=O)O", "EC50 / µM": 45.9}

Looking up "COc1cc2sc(C(=O)NCC3(C(=O)O)CCC3)c(F)c2cc1OC" , I see its EC50 listed as 22

Looking up "CC[C@H](CNC(=O)c1[se]c2cc(OC)c(OC)cc2c1F)C(=O)O" , I see its EC50 listed as 9.3

Looking up CCC(CNC(=O)c1sc2c(F)c(OC)c(OC)cc2c1F)C(=O)O (centres undefined) , I see its EC50 listed as 92.7

Looking up "CC[C@H](CNC(=O)c1sc2cc(OC)c(OC)cc2c1F)C(=O)O" , I see its EC50 listed as 11.9

Looking up COc1cc2sc(C(=O)NCC(C)C(=O)O)c(F)c2cc1OC (racemic) , I see its EC50 listed as 25.1

###

# experiment: Metabolic stability in mouse liver microsomes assessed as half life at 10 uM measured up to 60 mins by LC-MS/MS analysis
# Format: ADME, Microsome
measured-metric: half-life at 10 µM

{"given-smiles": "COc1cc2sc3c(c2cc1OC)C(=O)N(CCC(=O)O)C3=O", "half-life at 10 µM": "> 1 h"}

With those in mind, consider the next molecule.
Looking up "CC[C@H](CNC(=O)c1[se]c2cc(OC)c(OC)cc2c1F)C(=O)O" , I see its half-life at 10 µM listed as > 1 h

###

Property: pEC50; scope: individual compounds
# measurement-target: Stimulator of interferon genes protein (Homo sapiens)
# experiment: Agonist activity at STING R232 mutant (unknown origin) expressed in human THP1-Dual cells assessed as fold change in stimulation activity measured after 24 hrs incubation by QUANTI-Luc4 based microplate reader
# Format: cell-based
# Sequence (Q86WV6 whole entry, looked up, change not shown): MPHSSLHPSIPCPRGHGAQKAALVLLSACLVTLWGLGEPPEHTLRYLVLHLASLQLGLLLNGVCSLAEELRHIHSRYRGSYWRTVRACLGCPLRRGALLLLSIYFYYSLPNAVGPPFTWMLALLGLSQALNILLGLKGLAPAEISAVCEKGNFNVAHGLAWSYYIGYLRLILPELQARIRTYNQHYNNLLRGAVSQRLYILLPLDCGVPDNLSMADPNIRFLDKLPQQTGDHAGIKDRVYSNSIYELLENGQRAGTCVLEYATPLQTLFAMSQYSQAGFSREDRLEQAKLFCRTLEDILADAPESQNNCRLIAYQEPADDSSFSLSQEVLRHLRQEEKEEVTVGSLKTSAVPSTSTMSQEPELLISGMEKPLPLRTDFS
Lab note — pEC50 values are minus log10 of concentrations in M.

Some solved cases for reference:
{"compound": "COc1cc2sc(C(=O)NC[C@H](C)C(=O)O)c(F)c2cc1OC", "pEC50": 4.23}
{"compound": "CC[C@H](CNC(=O)c1[se]c2cc(OC)c(OC)cc2c1F)C(=O)O", "pEC50": 5.05}
{"compound": "CC[C@@H](CNC(=O)c1sc2cc(OC)c(OC)cc2c1F)C(=O)O", "pEC50": 4.29}
{"compound": "COc1cc2sc(C(=O)NC[C@@H](C)C(=O)O)c(F)c2cc1OC", "pEC50": 4.44}

Noted pEC50 for COc1cc2[se]c(C(=O)NCC(C)C(=O)O)c(F)c2cc1OC (centres undefined) , tested on Stimulator of interferon genes protein (Homo sapiens): 4.58

###

# experiment: Clearance in mouse at 5 mg/kg, iv by LC-MS/MS analysis
# Format: ADME, organism-based
# condition-label: in vivo
measured-metric: clearance (mL/min/kg)
The reply should be a number in mL/min/kg, with the unit left off.

{"given-smiles": "COc1cc2cc(C(=O)CCC(=O)O)sc2cc1OC", "recorded-result": 11.5}

Looking up "CC[C@H](CNC(=O)c1[se]c2cc(OC)c(OC)cc2c1F)C(=O)O" , I see its clearance listed as 4.04

###

# measurement-target: Stimulator of interferon genes protein (Homo sapiens, UniProt Q86WV6)
# experiment: Agonist activity at human STING HAQ variant in human THP1-Blue ISG cells assessed as fold change in stimulation activity measured after 24 hrs incubation by QUANTI-Blue based microplate reader
# Format: cell-based
measured-metric: pEC50
Lab note — pEC50 values are minus log10 of concentrations in M.

Some solved cases for reference:
{"compound": "CCC(CNC(=O)c1sc2cc(Br)c(OC)cc2c1F)C(=O)O (stereo unspecified)", "pEC50": 4.88}
{"compound": "CCC(CNC(=O)c1sc2cc(OC)c(OC)cc2c1F)C(=O)O (racemic)", "pEC50": 5.32}
{"compound": "COc1cc2sc(C(=O)NCCCC(=O)O)c(F)c2cc1OC", "pEC50": 4.26}
{"compound": "CC[C@H](CNC(=O)c1[se]c2cc(OC)c(OC)cc2c1F)C(=O)O", "pEC50": 5.48}

Noted pEC50 for CCC(CNC(=O)c1[se]c2cc(OC)c(OC)cc2c1F)C(=O)O (stereo unspecified) , tested on Stimulator of interferon genes protein (Homo sapiens, UniProt Q86WV6): 5.42

Noted pEC50 for "COc1cc2sc(C(=O)NCC3(C(=O)O)CCC3)c(F)c2cc1OC" , tested on Stimulator of interferon genes protein (Homo sapiens, UniProt Q86WV6): 5.43

Noted pEC50 for "COc1cc2sc(C(=O)NCCC(=O)O)c(Br)c2cc1OC" , tested on Stimulator of interferon genes protein (Homo sapiens, UniProt Q86WV6): 4.33

Noted pEC50 for "CONC(=O)CCNC(=O)c1sc2cc(OC)c(OC)cc2c1F" , tested on Stimulator of interferon genes protein (Homo sapiens, UniProt Q86WV6): 4.48

Noted pEC50 for "COc1cc2sc3c(c2cc1OC)C(=O)N(CCC(=O)O)C3=O" , tested on Stimulator of interferon genes protein (Homo sapiens, UniProt Q86WV6): 5.35

###

# experiment: Half life in mouse at 5 mg/kg, iv by LC-MS/MS analysis
# Assay type: ADME, organism-based
# condition-label: in vivo
Property: half-life; scope: individual compounds
The reply should be a number in min, with the unit left off.

{"given-smiles": "CC[C@H](CNC(=O)c1[se]c2cc(OC)c(OC)cc2c1F)C(=O)O", "measured-metric": "half-life", "unit-of-measurement": "min", "recorded-result": 36}

With those in mind, consider the next compound.
Looking up "COc1cc2cc(C(=O)CCC(=O)O)sc2cc1OC" , I see its half-life listed as 18

###

# measurement-target: Stimulator of interferon genes protein (Homo sapiens, UniProt Q86WV6)
# experiment: Binding affinity to wild type His-tagged STING (unknown origin) measured after 3 hrs incubation by HTRF assay
# Sequence (Q86WV6 whole entry): as the sequence (Q86WV6 whole entry, looked up, change not shown) above
measured-metric: IC50 (µM)
The reply should be a number in µM, with the unit left off.

Some solved cases for reference:
{"compound": "COc1cc2sc3c(c2cc1OC)C(=O)N(CCC(=O)O)C3=O", "recorded-result": 22.1}
{"compound": "CC[C@@H](CNC(=O)c1sc2cc(OC)c(OC)cc2c1F)C(=O)O", "recorded-result": 65.5}
{"compound": "CC[C@H](CNC(=O)c1sc2cc(OC)c(OC)cc2c1F)C(=O)O", "recorded-result": 24.1}
{"compound": "COc1cc2sc(C(=O)NC[C@@H](C)C(=O)O)c(F)c2cc1OC", "recorded-result": 28.7}
{"compound": "COc1cc2sc(C(=O)NCC(C)C(=O)O)c(F)c2cc1OC (racemic)", "recorded-result": 30.6}

Looking up CCC(CNC(=O)c1sc2cc(OC)c(OC)cc2c1F)C(=O)O (racemic) , I see its IC50 listed as 24.6

###

# measurement-target: Stimulator of interferon genes protein (Homo sapiens)
# experiment: Agonist activity at human STING HAQ variant in human THP1-Blue ISG cells assessed as fold change in stimulation activity measured after 24 hrs incubation by QUANTI-Blue based microplate reader
# Assay type: cell-based
pEC50: −log10 of the molar value.
Property: pEC50; scope: individual compounds

Some solved cases for reference:
{"given-smiles": "C=Cc1cc2c(F)c(C(=O)NCCC(=O)O)sc2cc1OC", "recorded-result": "< 4.00"}
{"given-smiles": "COc1cc2sc(C(=O)NCCC(=O)NS(C)(=O)=O)c(F)c2cc1OC", "recorded-result": "< 4.00"}
{"given-smiles": "COc1cc2sc(C(=O)NCC(=O)O)c(F)c2cc1OC", "recorded-result": "< 4.00"}
{"given-smiles": "COc1cc2sc(C(=O)NC[C@H](C)C(=O)O)c(F)c2cc1OC", "recorded-result": 5.21}
{"given-smiles": "COc1cc2sc(C(=O)NC(C)(C)CC(=O)O)c(F)c2cc1OC", "recorded-result": "< 4.00"}

With those in mind, consider the next compound.
Looking up "CC[C@@H](CNC(=O)c1sc2cc(OC)c(OC)cc2c1F)C(=O)O" , I see its pEC50 listed as 4.95
